test system: NCI-H23 lung; assay: NCI tumour cell line growth inhibition, 48 h; in the data active = GI50 below about 0.43 µM; inactive = the rest
Classes used: active, inactive

SUBSTANCE_SMILES	CLASS_NAME
O=C1C(Cl)=C(NCCN2CCOCC2)C(=O)c2ncccc21	inactive
CCC[CH2][Sn]1([CH2]CCC)[O]C(=O)CN=Cc2c(ccc3ccccc23)[O]1	active
O=C(CCc1nnc2sc(-c3ccc(Cl)cc3Cl)nn12)c1nc2ccccc2[nH]1	inactive
COc1cc2cc(Oc3ccc(NC(=O)Nc4ccc(Cl)c(C(F)(F)F)c4)cc3)c(C)nc2cc1OCCN1CCOCC1	inactive

---

test system: U251 CNS; experiment: NCI tumour cell line growth inhibition, 48 h
# key: entry, value: TGI
QUANTITY_NAME: TGI

COMPOUND	QUANTITY_NAME	REPORTED_RESULT
O=S(=O)(NC1=NCCN1C(=S)SN1CCn2c1nsc2=S)c1cccc(Cl)c1	TGI	27.8 µM
C[C@@H]1OC(=O)N2CCCC(=C3SCCCS3)C12 (stereo partly specified)	TGI	> 100 µM
O=C(Nc1ccc(-c2nc(N3CCOCC3)c3cccn3n2)cc1)Nc1cccnc1	TGI	> 100 µM
COc1ccc(C(=O)c2sc(N(C)C)nc2-c2ccccc2)cc1	TGI	> 100 µM
O=C(O)CCNC1CCCCC1	TGI	> 100 µM
Oc1c2cc(Cl)cc1COCc1cc(Cl)cc(c1O)COCc1cc(Cl)cc(c1O)COC2	TGI	> 100 µM

---

tested on: NCI-H23 lung; assay: NCI tumour cell line growth inhibition, 48 h
// reported GI50 per item

COMPOUND	GI50
CCCCCCCCn1ccc2cc(NC(=O)Cn3cc(CN4CCCC4)nn3)ccc21	1.92 µM
CS(=O)(=O)CCNCc1ccc(-c2ccc3ncnc(Nc4ccc(OCc5ccccc5)cc4)c3c2)o1	8.57 µM
Cc1ccc(C(=O)N(CCCN)C(c2oc3cc(Cl)ccc3c(=O)c2Cc2ccccc2)C(C)C)cc1 (stereo not given)	< 0.01 µM
OCCCNc1nc(=S)[nH]c2[nH]ncc12	51.7 µM
NC(=O)NS(=O)(=O)c1ccc(N2N=C(C(F)(F)F)CC2c2cc(C(F)(F)F)cc(C(F)(F)F)c2)cc1 (stereo not given)	5.32 µM

---

test system: MOLT-4 leukemia; experiment: NCI tumour cell line growth inhibition, 48 h

MOLECULE	TGI
O=C(O)C(=Cc1ccc(-c2ccccc2)cc1)C(=O)O	53.6 µM
CC(=O)O[C@H]1C(=O)[C@@]2(C)C(C(OC(=O)c3ccccc3)[C@]3(O)CC(OC(=O)[C@H](OC(=O)CCC(=O)O)C(NC(=O)c4ccccc4)c4ccccc4)C(C)=C1C3(C)C)C1(OC(C)=O)COC1C[C@@H]2O (some centres undefined)	1.05 µM
C=C(C[C@](O)(C(=O)/C=C/c1ccc(Cl)cc1)C(=O)OC)c1ccccc1	8.35 µM
CC1(C)OC2=C(CC1Br)C(=O)C(=O)c1ccccc12 (centres undefined)	5.26 µM
NC(=O)NS(=O)(=O)c1ccc(N2N=C(C(F)(F)F)CC2c2cc(C(F)(F)F)cc(C(F)(F)F)c2)cc1 (centres undefined)	55.5 µM
C[C@]12CC[C@H](OC(=O)Cc3ccc(N(CCCl)CCCl)cc3)CC1=CC[C@@H]1[C@@H]2CC[C@]2(C)C(=O)CC[C@@H]12	> 100 µM
N#CC12CNCC1CN=N2 (centres undefined)	> 100 µM
CCCC(=O)OCC1OC(n2cnc3c(=S)nc[nH]c32)C(OC(=O)CCC)C1OC(=O)CCC (centres undefined)	39.1 µM
COc1cc(C(=O)CBr)c(OC)cc1C	> 100 µM

---

tested on: KM12 colon; assay: NCI tumour cell line growth inhibition, 48 h
// TGI lookup, one value per entry

COMPOUND	TGI
O=c1cc(N2CCNCC2)nc2ccccn12	> 100 µM
CC(C)(C)OC(=O)CN1C(=O)CC1CC(=O)c1ccccc1 (stereo unspecified)	44.4 µM
O=C1NC(=O)C(CCC(=O)c2ccc3ccccc3c2)C(=O)N1	> 100 µM
COC(=O)c1cc2c(cc1CC1Cc3cc4c(cc3C1=O)CCC4)CCC2 (stereo unspecified)	> 100 µM
Cc1ccc2c(c1)Sc1c(ccc3ccccc13)N2	> 100 µM
O=S(=O)(SC1=NCCN1)c1ccc2ccccc2c1	44.1 µM

---

test system: UACC-62 melanoma; test: NCI tumour cell line growth inhibition, 48 h; in the data active = GI50 below about 0.43 µM; inactive = the rest
Classes used: yes (active), no (inactive)

COMPOUND	CLASS_NAME
CCCCCCCC[C@@H](O)CC(=O)N[C@@H](CC(N)=O)C(=O)N[C@@H](CCC(N)=O)C(=O)N[C@@H](CC(=O)c1cc(C)cc(O)c1C(=O)c1c(O)cccc1O)CC(C)C	yes
Nc1nc(N(Cc2ccccc2)c2ccccc2)c2cn[nH]c2n1	no
O=S(=O)(NC1=NCCN1C(=S)SN1CCn2c1nsc2=S)c1cccc(Cl)c1	no
COc1ccc(-c2nc(-c3nc4ccc(Cl)cc4[nH]3)c3ccccn23)cc1	no
CC/C=C\C[C@@H](O)C/C=C1/C(=O)C=C[C@H]1C/C=C\CCCC(=O)OC	no
O=C(CCc1nnc2sc(-c3ccc(Cl)cc3Cl)nn12)c1nc2ccccc2[nH]1	no
COc1ccc2c(c1)CCCN2c1c2ccccc2nc2ccccc12	yes
CC[C@@]1(c2ccccc2)C2=C(CC(C)(C)CC2=O)Nc2[nH]ncc21	no
CCOC1Oc2ccc(C)cc2C(=O)/C1=C\Nc1ccc(C(N)=O)cc1 (centres undefined)	no
Nc1nccc(-c2c(-c3ccc(F)cc3)ncn2C2CCC(O)CC2)n1 (centres undefined)	no
O=C(Nc1ccncc1)C(=O)c1cn(S(=O)(=O)c2cccc(F)c2)c2ccccc12	no
OCCCNc1nc(=S)[nH]c2[nH]ncc12	no
O=C1CCC(N2C(=O)c3ccccc3C2=O)C(=O)N1CO (centres undefined)	no
CCC[CH2][Sn]1([CH2]CCC)[O]C(=O)CN=Cc2c(ccc3ccccc23)[O]1	yes

---

Property: TGI; scope: individual compounds
tested on: A498 renal; assay: NCI tumour cell line growth inhibition, 48 h

COMPOUND	TGI
COC(=O)CC(c1cn(S(=O)(=O)c2ccc(C)cc2)c2ccccc12)C1C[C@@H](C(=O)OC)N(C(=O)OC(C)(C)C)C1=O (stereo not given in full)	> 100 µM
CC1CN1C(=O)NCCCCCCNC(=O)N1CC1C (stereo not given)	> 100 µM
O=C1CSSCC(=O)Nc2ccccc2N1	> 100 µM
c1ccc(-c2cn3c(nc4ccccc43)c(-c3ccccc3)n2)cc1	> 78.1 µM
O=C(O)C1CCCN(CCc2c[nH]c3ccccc23)C1 (stereo not given)	> 100 µM
O=[N+]([O-])c1ccc(C=NC2CCCCC2)cc1	> 100 µM
Ic1ccc2c(c1)N(c1ccccc1)c1cc(N=c3ccc4nc5ccc(I)cc5n(-c5ccccc5)c-4c3)ccc1N2	> 100 µM
Cc1ccc(C(=O)NC(C)C)cc1-c1ccc(C(=O)NCC2CC2)cc1	> 25 µM
COc1nc(N=P(c2ccccc2)(c2ccccc2)c2ccccc2)cc(=O)[nH]1	> 100 µM
COC1(OC)CC2OC1C1N=NN(C(=O)OC(C)(C)C)C21 (stereo not given)	> 100 µM

---

test system: UO-31 renal; assay: NCI tumour cell line growth inhibition, 48 h

COMPOUND	STUDY_SYSTEM	TGI
Nc1nc(I)nc2c1ncn2C1OC(COS(N)(=O)=O)C(O)C1O (centres undefined)	UO-31 renal	0.0653 µM
CN(C)/N=C(/CC(O)(C(F)(F)F)C(F)(F)F)c1ccc([N+](=O)[O-])cc1	UO-31 renal	> 100 µM
Nc1nc(Cl)c(CO)c(NCC2(CO)CC(CCc3ccccc3)C2)n1 (centres undefined)	UO-31 renal	68.8 µM
COC(=O)c1cc(C)ccc1C1CN=NC12Cc1ccc(C)cc1C2=O (centres undefined)	UO-31 renal	> 100 µM
C/C(O)=C(\N=O)C(=O)Nc1ccc(Cl)cc1Cl	UO-31 renal	> 100 µM
CC(=O)O[C@H]1C(=O)[C@@]2(C)C(C(OC(=O)c3ccccc3)[C@]3(O)CC(OC(=O)[C@H](OC(=O)CCC(=O)O)C(NC(=O)c4ccccc4)c4ccccc4)C(C)=C1C3(C)C)C1(OC(C)=O)COC1C[C@@H]2O (some centres undefined)	UO-31 renal	> 100 µM
O=[N+]([O-])c1ccc(C=NC2CCCCC2)cc1	UO-31 renal	> 100 µM
Cn1c2ccccc2c2ccc3c(c21)C(=O)c1ccccc1C3=O	UO-31 renal	> 100 µM
Cc1nc(-c2cc3c(ccc4ccccc43)oc2=O)cs1	UO-31 renal	> 100 µM

---

tested on: HL-60(TB) leukemia; test: NCI tumour cell line growth inhibition, 48 h; in the data active = GI50 below about 0.43 µM; inactive = the rest
Classes used: active, inactive

COMPOUND	STUDY_SYSTEM	CLASS_NAME
CCCCCCCCn1ccc2cc(NC(=O)Cn3cc(CN4CCCC4)nn3)ccc21	HL-60(TB) leukemia	inactive
OCCCNc1nc(=S)[nH]c2[nH]ncc12	HL-60(TB) leukemia	inactive
COc1cc2cc(Oc3ccc(NC(=O)Nc4ccc(Cl)c(C(F)(F)F)c4)cc3)c(C)nc2cc1OCCN1CCOCC1	HL-60(TB) leukemia	inactive
O=c1cc(-c2ccccc2)oc2cc(OC/C(=N/O)c3ccccc3)ccc12	HL-60(TB) leukemia	inactive
COc1ccc(C(=O)C#Cc2cnc(OC)nc2OC)cc1	HL-60(TB) leukemia	inactive
O=C1Nc2ccccc2C1(c1ccc(O)cc1)c1ccc(O)cc1	HL-60(TB) leukemia	inactive
C#CCNC(=O)c1cccc2c1cc(C)n2-c1nc2c(c(NCc3ccccc3)n1)CCCC2	HL-60(TB) leukemia	active
CCCn1c(=S)sc2c1nc(C)n1c(Nc3ccccc3)nnc21	HL-60(TB) leukemia	inactive
O=C(CCc1nnc2sc(-c3ccc(Cl)cc3Cl)nn12)c1nc2ccccc2[nH]1	HL-60(TB) leukemia	inactive
C=C(C[C@](O)(C(=O)/C=C/c1ccc(Cl)cc1)C(=O)OC)c1ccccc1	HL-60(TB) leukemia	inactive
COC(=O)Nc1nc2ccc(Oc3ccc(NC(=O)Nc4cc(C(F)(F)F)ccc4F)cc3)cc2s1	HL-60(TB) leukemia	inactive
COc1cc[nH]c1/C=C1\C(=O)Nc2ccc(F)c(C#CC3(O)CCNCC3)c21	HL-60(TB) leukemia	active
C[N+]1=C(/C=C/c2ccc(O)c3ncccc23)C(C)(C)c2ccccc21	HL-60(TB) leukemia	inactive
CS(=O)(=O)c1ccc(-n2nc(C(F)(F)F)cc2OC2CCCC2)cc1	HL-60(TB) leukemia	inactive
Cc1ccc2c(c1)Sc1c(ccc3ccccc13)N2	HL-60(TB) leukemia	inactive
Nc1nc2c(nnn2C2CC(O)C(CO)O2)c(=O)[nH]1 (configuration not stated)	HL-60(TB) leukemia	inactive
CC/C=C\C[C@H](F)C/C=C1/C(=O)C=C[C@@H]1C/C=C\CCCC(=O)O	HL-60(TB) leukemia	inactive
